Provenance of the data: ChEMBL document CHEMBL1955771

target: Mast/stem cell growth factor receptor Kit (Homo sapiens, UniProt P10721); experiment: Inhibition of SCF-induced phosphorylation of c-KIT in human TF1 cells after 1 hr by immunoblot analysis; assay type: cell-based, TF-1
Sequence (P10721 whole entry): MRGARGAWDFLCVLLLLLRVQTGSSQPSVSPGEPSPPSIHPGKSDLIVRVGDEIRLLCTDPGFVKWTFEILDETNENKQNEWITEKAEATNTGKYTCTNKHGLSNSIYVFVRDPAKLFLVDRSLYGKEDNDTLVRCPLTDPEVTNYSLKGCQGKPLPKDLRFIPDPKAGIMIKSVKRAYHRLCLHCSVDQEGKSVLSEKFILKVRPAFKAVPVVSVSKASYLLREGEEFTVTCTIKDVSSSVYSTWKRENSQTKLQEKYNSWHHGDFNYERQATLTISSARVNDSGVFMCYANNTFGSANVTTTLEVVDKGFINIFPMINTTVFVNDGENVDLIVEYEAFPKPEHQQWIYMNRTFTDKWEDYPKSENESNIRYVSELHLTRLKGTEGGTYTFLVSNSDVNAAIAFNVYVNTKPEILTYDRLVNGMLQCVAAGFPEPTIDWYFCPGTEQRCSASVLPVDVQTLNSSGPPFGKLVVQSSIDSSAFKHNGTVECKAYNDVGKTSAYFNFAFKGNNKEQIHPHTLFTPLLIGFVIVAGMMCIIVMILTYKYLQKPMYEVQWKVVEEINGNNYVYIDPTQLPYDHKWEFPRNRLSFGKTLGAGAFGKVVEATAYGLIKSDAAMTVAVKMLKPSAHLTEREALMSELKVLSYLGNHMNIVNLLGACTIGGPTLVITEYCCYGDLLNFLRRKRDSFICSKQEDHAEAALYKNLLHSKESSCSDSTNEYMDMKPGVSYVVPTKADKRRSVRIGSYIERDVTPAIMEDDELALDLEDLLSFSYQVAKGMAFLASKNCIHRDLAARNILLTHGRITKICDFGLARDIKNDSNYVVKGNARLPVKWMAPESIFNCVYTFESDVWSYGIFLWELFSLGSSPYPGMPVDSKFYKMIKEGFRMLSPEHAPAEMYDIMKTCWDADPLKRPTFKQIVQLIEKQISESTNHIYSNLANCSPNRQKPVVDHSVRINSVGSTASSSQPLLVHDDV
Assay Readout: pIC50
Notebook: values listed as pIC50 are -log10 of the concentration (mol/L).

Sample "Nc1nc(Nc2ccc([C@H]3CC[C@H](N4CCOCC4)CC3)cc2)nn1-c1ccccn1" ; pIC50 observed: 8.40

----------
tested on: TF-1; assay: cells; conditions: Homo sapiens, TF-1, 72 h
Description: Cytotoxicity against human TF1 cells expressing FMS assessed as cell viability after 72 hrs by resazurin dye based fluorescence assay
pIC50: −log10 of the molar value.
Assay Readout: pIC50

Form field pIC50 for item "Nc1nc(Nc2ccc([C@H]3CC[C@H](N4CCOCC4)CC3)cc2)nn1-c1ccccn1" on TF-1: < 5.40

----------
# reported IC50; entries follow
target: Receptor-type tyrosine-protein kinase FLT3 (Homo sapiens); assay: Inhibition of human recombinant FLT3 by radiometric assay
Sequence (P36888 whole entry): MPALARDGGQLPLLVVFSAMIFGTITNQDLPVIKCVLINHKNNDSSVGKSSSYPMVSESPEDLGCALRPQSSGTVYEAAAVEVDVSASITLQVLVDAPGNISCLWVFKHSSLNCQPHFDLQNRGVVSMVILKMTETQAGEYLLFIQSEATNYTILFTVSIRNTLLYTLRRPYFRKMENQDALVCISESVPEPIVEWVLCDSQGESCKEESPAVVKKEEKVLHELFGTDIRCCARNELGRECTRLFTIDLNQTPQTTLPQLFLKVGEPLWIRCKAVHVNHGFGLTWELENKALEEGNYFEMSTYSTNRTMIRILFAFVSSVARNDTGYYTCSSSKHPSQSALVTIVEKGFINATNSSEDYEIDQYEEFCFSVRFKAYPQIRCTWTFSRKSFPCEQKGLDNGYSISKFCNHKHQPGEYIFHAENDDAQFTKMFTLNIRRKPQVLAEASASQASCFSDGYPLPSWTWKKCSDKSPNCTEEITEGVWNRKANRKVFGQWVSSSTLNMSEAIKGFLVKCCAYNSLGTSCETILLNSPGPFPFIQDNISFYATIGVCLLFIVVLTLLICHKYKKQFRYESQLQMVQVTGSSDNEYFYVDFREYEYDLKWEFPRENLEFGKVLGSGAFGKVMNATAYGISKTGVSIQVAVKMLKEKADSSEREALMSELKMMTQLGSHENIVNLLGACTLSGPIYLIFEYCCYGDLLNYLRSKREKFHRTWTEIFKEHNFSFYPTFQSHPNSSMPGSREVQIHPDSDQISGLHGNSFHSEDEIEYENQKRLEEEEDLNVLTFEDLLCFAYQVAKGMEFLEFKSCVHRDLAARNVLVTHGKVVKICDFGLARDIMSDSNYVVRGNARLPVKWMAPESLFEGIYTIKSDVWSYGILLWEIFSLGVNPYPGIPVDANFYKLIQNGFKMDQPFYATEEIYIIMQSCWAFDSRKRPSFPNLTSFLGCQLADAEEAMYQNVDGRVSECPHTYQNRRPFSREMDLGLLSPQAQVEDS
Write it as a number; the unit nM goes unstated.

> print(dat)
                            compound.smiles  assay.readout  obs.value
1  COc1ccc(N2CCOCC2)cc1Nc1nc(N)n(-c2ccccn2)n1           IC50         36
2   Nc1nc(Nc2cc(N3CCOCC3)ccc2F)nn1-c1ccccn1           IC50         27

// sample "COc1ccccc1Nc1nc(N)n(-c2cc(NCCN(C)C)ncn2)n1" , its IC50 was 9

----------
molecular target: Mast/stem cell growth factor receptor Kit (Homo sapiens); experiment: Inhibition of human recombinant c-Kit by radiometric assay
pKi: −log10 of the molar value.
Assay Readout: pKi

Record summary for "Nc1nc(Nc2ccc([C@H]3CC[C@H](N4CCOCC4)CC3)cc2)nn1-c1ccccn1" : reported pKi = > 9.00

----------
This section presents compounds with their documented pIC50 values.
test system: TF-1; experiment: Cytotoxicity against human TF1 cells expressing FLT3 D835Y mutant assessed as cell viability after 72 hrs by resazurin dye based fluorescence assay; assay type: functional; settings: TF-1, 72 h
pIC50 field: float, defined as -log10 of concentration (mol/L).

The following compounds have reported results that may help.
> print(dat)
                            compound.smiles  assay.readout  obs.value
1  COc1ccc(N2CCOCC2)cc1Nc1nc(N)n(-c2ccccn2)n1          pIC50       6.43
2  CN1CCC(c2ccc(Nc3nc(N)n(-c4ccccn4)n3)cc2)CC1          pIC50       8.52
3  COc1ccccc1Nc1nc(N)n(-c2cc(NCCN(C)C)ncn2)n1          pIC50       9.15

The reported pIC50 of the compound "Nc1nc(Nc2ccc(N3CCOCC3)cc2)nn1-c1ccccn1" was 6.96

"Nc1nc(Nc2ccc(C(=O)NCCN3CCOCC3)cc2)nn1-c1ccccn1" has a reported pIC50 of 7.82

----------
target: Proto-oncogene tyrosine-protein kinase Src (Homo sapiens, UniProt P12931)
Sequence (P12931 2-536 limits assumed): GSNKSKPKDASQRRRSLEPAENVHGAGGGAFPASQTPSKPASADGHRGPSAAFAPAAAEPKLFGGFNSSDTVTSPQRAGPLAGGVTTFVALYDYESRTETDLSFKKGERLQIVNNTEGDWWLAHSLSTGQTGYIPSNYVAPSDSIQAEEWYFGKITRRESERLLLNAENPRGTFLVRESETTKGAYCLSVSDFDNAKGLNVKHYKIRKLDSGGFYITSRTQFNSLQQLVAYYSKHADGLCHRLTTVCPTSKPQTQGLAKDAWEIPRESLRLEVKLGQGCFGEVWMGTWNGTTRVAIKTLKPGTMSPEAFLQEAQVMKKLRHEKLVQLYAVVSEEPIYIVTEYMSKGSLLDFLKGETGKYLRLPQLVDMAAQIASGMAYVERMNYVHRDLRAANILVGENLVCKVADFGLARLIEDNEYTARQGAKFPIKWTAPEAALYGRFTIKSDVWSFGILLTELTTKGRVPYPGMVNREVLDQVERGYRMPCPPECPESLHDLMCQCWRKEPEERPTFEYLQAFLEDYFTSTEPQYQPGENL
Assay Readout: pKi
Scale explanation: pKi corresponds to minus log10 of a concentration expressed in moles per litre.

Short answer for "Nc1nc(Nc2ccc([C@H]3CC[C@H](N4CCOCC4)CC3)cc2)nn1-c1ccccn1" : pKi was 6.11

----------
target: Vascular endothelial growth factor receptor 2 (Homo sapiens)
Sequence (P35968 whole entry): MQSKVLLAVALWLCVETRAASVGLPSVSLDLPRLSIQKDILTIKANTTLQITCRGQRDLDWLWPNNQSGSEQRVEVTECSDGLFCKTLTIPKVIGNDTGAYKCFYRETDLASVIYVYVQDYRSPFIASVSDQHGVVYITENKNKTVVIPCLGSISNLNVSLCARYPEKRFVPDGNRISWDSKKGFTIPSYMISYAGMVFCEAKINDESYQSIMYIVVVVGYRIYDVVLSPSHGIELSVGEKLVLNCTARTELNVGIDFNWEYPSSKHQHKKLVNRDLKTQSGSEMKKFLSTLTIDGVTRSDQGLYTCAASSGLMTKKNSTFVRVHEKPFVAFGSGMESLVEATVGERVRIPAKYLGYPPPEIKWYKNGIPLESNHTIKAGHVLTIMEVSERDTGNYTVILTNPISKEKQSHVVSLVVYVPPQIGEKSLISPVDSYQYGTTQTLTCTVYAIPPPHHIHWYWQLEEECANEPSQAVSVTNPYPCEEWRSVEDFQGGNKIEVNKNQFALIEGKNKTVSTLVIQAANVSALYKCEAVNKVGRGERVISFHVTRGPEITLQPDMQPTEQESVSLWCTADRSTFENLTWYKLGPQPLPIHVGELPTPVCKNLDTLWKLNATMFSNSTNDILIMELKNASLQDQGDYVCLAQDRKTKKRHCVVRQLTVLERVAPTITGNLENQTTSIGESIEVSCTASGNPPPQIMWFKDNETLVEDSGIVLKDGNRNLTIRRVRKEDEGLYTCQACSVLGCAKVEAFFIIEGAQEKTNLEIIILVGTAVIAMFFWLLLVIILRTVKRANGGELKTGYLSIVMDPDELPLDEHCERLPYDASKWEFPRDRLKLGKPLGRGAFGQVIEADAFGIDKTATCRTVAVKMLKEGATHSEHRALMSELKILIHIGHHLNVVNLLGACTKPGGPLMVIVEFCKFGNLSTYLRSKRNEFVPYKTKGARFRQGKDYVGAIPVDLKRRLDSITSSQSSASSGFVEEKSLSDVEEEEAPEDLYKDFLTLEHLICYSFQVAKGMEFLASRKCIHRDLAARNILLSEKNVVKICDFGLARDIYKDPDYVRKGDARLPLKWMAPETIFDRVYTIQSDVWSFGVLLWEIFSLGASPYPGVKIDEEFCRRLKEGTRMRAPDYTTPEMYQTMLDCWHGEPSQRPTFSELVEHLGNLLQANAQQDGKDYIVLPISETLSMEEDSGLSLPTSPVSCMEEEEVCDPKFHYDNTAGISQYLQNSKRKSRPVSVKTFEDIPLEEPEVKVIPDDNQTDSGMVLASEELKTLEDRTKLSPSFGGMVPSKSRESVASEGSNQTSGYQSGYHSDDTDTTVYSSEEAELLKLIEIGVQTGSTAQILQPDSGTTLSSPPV
Assay Readout: Ki (nM)
Your answer is read as nM, so omit the unit and give the number.

Ki reading for "Nc1nc(Nc2ccc([C@H]3CC[C@H](N4CCOCC4)CC3)cc2)nn1-c1ccccn1" : 85
